Origin of measurements: patent US20220073604A1

assayed_target: T1, cynomolgus monkey IL-6 (cynomolgus monkey, UniProt P79341 28-212, limits assumed)
T1 construct: Immobilised on the Biacore chip
assay_text: SPR (Biacore), periplasmic Fab
value_kind: koff (s⁻¹)
Give bare numbers, in s⁻¹.

Measured koff, 55E10 (Fab, V domains shown, Periplasmic Fab; Suffix 'g1' not explained; also called 55E10g1) VH: QVQLVESGGGLVQPGGSLRLSCAASGFTFSNYYMTWVRQAPGKGLEWVSSIYSFSGDTAYADSVKGRFTISRDNAKNTLYLQMNSLKSEDTAVYYCTRNLGGVVVTTNGYDYWGQGTQVTVSS VL: DIQMTQSPSSLPTSLGDSVTITCQASQSISDELSWYQQKPGQTPKLLIYGASKLQTGVPSRFSGSGSGTSFTLTISGLEAEDLATYYCLQGYSWPFMFGQGTKVELK : 6.88e-05
